# testedSystem: 5-Lipoxygenase (Homo sapiens)
# Construct: Human heparinized whole blood was preincubated with test compounds or vehicle for 15 min; endogenous in cells
# Sequence (P09917 whole entry): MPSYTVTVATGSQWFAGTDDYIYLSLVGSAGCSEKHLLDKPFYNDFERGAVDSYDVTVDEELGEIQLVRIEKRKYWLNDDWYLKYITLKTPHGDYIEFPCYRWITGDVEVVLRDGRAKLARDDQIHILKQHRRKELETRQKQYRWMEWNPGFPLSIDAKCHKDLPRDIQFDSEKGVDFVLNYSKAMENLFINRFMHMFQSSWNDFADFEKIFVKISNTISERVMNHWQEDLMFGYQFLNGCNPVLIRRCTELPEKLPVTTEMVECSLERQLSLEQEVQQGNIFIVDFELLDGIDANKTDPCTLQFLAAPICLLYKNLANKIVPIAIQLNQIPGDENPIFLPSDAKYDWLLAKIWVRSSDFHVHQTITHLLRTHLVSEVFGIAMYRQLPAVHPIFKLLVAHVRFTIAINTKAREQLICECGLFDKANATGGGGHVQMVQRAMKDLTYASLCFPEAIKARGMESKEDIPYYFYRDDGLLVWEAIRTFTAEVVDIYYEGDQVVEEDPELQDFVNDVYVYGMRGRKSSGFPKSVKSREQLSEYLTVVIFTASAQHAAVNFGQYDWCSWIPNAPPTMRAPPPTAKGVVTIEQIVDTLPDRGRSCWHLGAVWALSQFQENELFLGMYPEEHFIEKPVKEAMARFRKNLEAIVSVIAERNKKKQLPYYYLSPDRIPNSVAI
# assayName: Inhibition of calcium ionophore-induced LTB4 biosynthesis in human whole blood (5-lipoxygenase inhibition)
# conditionNotes: human heparinized whole blood; 15 min preincubation at 37° C.; A23187 8.3 μM, 30 min; read-out: IC50, inhibition of 5-lipoxygenase from stimulated LTB4 formation in human whole blood
assayMetric: pIC50
// pIC50 here means minus log10 of the molar concentration (mol/L)

Answered examples (2):
>>> numericreadout("NC(=O)N(O)C1CC(c2ccccc2)C1 (single isomer, unassigned) [Example 2a, N-[3-phenylcyclobutyl]-N-hydroxyurea]")
6.48
>>> numericreadout("NC(=O)N(O)C1CC(c2ccc(-c3ccccc3)cc2)C1 (single isomer, unassigned) [Example 5b]")
6.02

# input Fill in reported pIC50 for this entry: NC(=O)N(O)C1CC(c2cccc(Oc3ccc(F)cc3)c2)C1 (single isomer, unassigned) [Example 1a]
# output 6.89

# input Fill in reported pIC50 for this entry: NC(=O)N(O)C1CC(c2ccccc2)C1 (single isomer, unassigned) [Example 2b, N-[3-phenylcyclobutyl]-N-hydroxyurea]
# output 6.52

# input Fill in reported pIC50 for this entry: NC(=O)N(O)C1CC(c2ccc(-c3ccccc3)cc2)C1 (single isomer, unassigned) [Example 5a]
# output 7.05

# input Fill in reported pIC50 for this entry: COc1ccc2cc(C3CC(N(O)C(N)=O)C3)ccc2c1 (single isomer, unassigned) [Example 4a]
# output 6.64

# input Fill in reported pIC50 for this entry: NC(=O)N(O)C1CC(c2cccc(Oc3ccc(F)cc3)c2)C1 (single isomer, unassigned) [Example 1b]
# output 6.80

====

Property: pIC50; scope: individual compounds
# testedSystem: 5-Lipoxygenase (Homo sapiens)
# Construct: Human heparinized whole blood was preincubated with test compounds or vehicle for 15 min; endogenous in cells
# assayName: Inhibition of calcium ionophore-induced LTB4 biosynthesis in human whole blood (5-lipoxygenase inhibition)
# conditionNotes: human heparinized whole blood; 15 min preincubation at 37° C.; A23187 8.3 μM, 30 min; read-out: IC50, inhibition of 5-lipoxygenase from stimulated LTB4 formation in human whole blood
// pIC50 here means minus log10 of the molar concentration (mol/L)

>>> numericreadout("COc1cccc(C2CC(N(O)C(C)=O)C2)c1 (single isomer, unassigned) [Example 6b]")
5.92
>>> numericreadout("COc1ccc2cc(C3CC(N(O)C(N)=O)C3)ccc2c1 (single isomer, unassigned) [Example 4b]")
6.28

Now consider the entry below.
# input Fill in reported pIC50 for this entry: COc1cccc(C2CC(N(O)C(C)=O)C2)c1 (single isomer, unassigned) [Example 6a]
# output 6.29

The reported numbers originate from patent US5187192A.
